variants and their reported self-cleavage kobs at 160 uM GlcN6P
B1: glmS ribozyme (parent)
chain: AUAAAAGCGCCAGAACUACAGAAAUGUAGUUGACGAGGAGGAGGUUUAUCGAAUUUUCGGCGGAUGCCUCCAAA

variants of: B1; assay: self-cleavage kobs at 160 uM GlcN6P; higher = faster cleavage; RNA array; settings: with glucosamine-6-phosphate
Variants at the floor of the assay were thinned out.

Use these answered entries as a reference point.
A14U A36C A64U ... < 1e-05 s⁻¹
A53C C61U ... < 1e-05 s⁻¹
C34U U65C ... < 1e-05 s⁻¹
A12U A33C A39G C50G A52G ... < 1e-05 s⁻¹
A15G U47G C68G ... 0.000236 s⁻¹
A14C U55G C67U ... 0.00016 s⁻¹
A6G A12C G40A ... < 1e-05 s⁻¹
C16G G35C A39G G60U C61U C68U C71A ... < 1e-05 s⁻¹

Prompt line: Please look up its self-cleavage kobs at 160 uM GlcN6P: A15G A53G
Response line: 0.00183 s⁻¹

Prompt line: Please look up its self-cleavage kobs at 160 uM GlcN6P: G41C C61G
Response line: < 1e-05 s⁻¹

Prompt line: Please look up its self-cleavage kobs at 160 uM GlcN6P: U31C U65A
Response line: 3.17e-05 s⁻¹
